Provenance of the data: paper PMC10786891

systemUnderTest: T1, EsCas13d, nuclease-dead (Eubacterium siraeum, UniProt B0MS50, R295A;H300A;R849A;H854A)
T1 sequence: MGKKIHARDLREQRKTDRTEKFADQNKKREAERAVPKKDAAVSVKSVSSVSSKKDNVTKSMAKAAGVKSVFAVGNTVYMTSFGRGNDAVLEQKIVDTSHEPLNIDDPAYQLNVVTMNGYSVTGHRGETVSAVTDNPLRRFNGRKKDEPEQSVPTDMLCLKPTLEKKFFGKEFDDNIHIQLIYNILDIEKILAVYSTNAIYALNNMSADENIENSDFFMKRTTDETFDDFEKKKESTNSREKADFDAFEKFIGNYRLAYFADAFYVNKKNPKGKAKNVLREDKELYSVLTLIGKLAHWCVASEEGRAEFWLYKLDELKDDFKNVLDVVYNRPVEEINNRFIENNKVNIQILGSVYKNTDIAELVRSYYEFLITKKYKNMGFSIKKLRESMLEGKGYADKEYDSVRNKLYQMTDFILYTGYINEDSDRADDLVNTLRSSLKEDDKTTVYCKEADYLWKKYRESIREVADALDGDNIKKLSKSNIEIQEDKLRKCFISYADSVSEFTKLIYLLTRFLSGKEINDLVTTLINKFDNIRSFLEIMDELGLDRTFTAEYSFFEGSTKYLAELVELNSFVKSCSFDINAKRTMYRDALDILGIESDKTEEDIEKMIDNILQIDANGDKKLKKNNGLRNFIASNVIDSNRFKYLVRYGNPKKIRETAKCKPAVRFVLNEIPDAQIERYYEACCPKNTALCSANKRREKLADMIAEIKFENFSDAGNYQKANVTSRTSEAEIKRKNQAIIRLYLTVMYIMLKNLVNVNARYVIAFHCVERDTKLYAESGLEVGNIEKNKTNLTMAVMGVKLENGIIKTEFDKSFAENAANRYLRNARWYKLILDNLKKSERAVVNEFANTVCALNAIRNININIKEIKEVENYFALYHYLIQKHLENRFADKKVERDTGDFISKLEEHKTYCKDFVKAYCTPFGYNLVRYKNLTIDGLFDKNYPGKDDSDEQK
protocolSummary: crRNA (strand 1, pre-loaded); Mg2+; 40 mM Tris-HCl pH 7.5, 150 mM NaCl, 6 mM MgCl2, 1 mM DTT, 0.1% Tween-20, 0.2 mg/ml BSA; 25 C; 10 min per concentration, then washed
recordedConditions: tags: His6-TwinStrep-SUMO cleaved; N-terminal SNAP kept (SNAP-Surface 488); label: 3' end held by stalled T7 RNA polymerase
assayEndpoint: Kd (nM)
Supply the numeric figure in nM, leaving out any unit text.

- binder: "target 1 MT 5'PFS UUA 3'PFS CAA (mixed) RNA 1: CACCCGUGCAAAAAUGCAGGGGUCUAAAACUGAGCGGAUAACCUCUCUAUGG RNA 2: GGGAAUGGAUCCACAUCUACGAAUUCUUACCAUAGAGAGGUUAUCCGCUCACAAAGAUCGGAAGAGCACACGU"
  assayEndpoint: "Kd"
  uom: "nM"
  measuredValue: 49

Query binder follows.
binder target 1 A1U,C6U (mixed) RNA 1: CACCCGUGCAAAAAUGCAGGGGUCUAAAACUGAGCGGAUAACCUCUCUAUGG RNA 2: GGGAAUGGAUCCACAUCUACGAAUUCGUACCAUAGAGAGGUUAUCUGCUCUCCGAGAUCGGAAGAGCACACGU , Kd observed: 11.4
